Sourced from patent US9932354B2

Reported values of IC50 for individual entries
System: Amyloid-β peptide release (Aβ42), HEK cells overexpressing APP (HEK-APP)
Test: Amyloid-β peptide release (Aβ42) assay, AlphaLISA on supernatant of HEK-APP cells
Type: cell-based
Cond: Homo sapiens, HEK293, 24 h incubation with compound, read-out: Ab42 IC50 Ranges
Readout Label: IC50

>  <Smiles Code>
Cc1cc(-c2nn3c(C)ncc3o2)ccc1NC(=O)Cc1ccccc1C(F)(F)F

>  <Readout Label>
IC50

>  <Value Observed>
500 to 1000 nM

$$$$
>  <Smiles Code>
COc1cc(C(=O)NCc2cccc(C(F)(F)F)c2)ccc1-c1nn2c(C)ncc2o1

>  <Readout Label>
IC50

>  <Value Observed>
1000 to 2200 nM

$$$$
>  <Smiles Code>
CCN(Cc1ccccc1)C(=O)c1nn2c(C)ncc2s1

>  <Readout Label>
IC50

>  <Value Observed>
1000 to 2200 nM

$$$$
>  <Smiles Code>
Cc1ncc2sc(C(=O)N3CCC[C@@H]3c3ccc(Br)cc3)nn12

>  <Readout Label>
IC50

>  <Value Observed>
< 100 nM

$$$$
>  <Smiles Code>
Cc1ncc2oc(-c3ccc(NCc4ccc(Cl)c(Cl)c4)cn3)nn12

>  <Readout Label>
IC50

>  <Value Observed>
100 to 500 nM

$$$$

---

System: Amyloid-β peptide release (Aβ42), HEK cells overexpressing APP (HEK-APP)
Test: Amyloid-β peptide release (Aβ42) assay, AlphaLISA on supernatant of HEK-APP cells
Format: cell-based
Cond: Homo sapiens, HEK293, 24 h incubation with compound, read-out: Ab42 IC50 Ranges

>  <Compound>
Cc1ncc2sc(C(=O)N3CCCC[C@H]3c3ccccc3)nn12

>  <IC50>
0.5 to 1 µM

$$$$
>  <Compound>
Cc1cc(C)cc(CC(=O)Nc2ccc(-c3nn4c(C)ncc4o3)cc2)c1

>  <IC50>
0.5 to 1 µM

$$$$
>  <Compound>
Cc1ncc2oc(-c3ccc(NC(=O)C4(c5ccc(Cl)cc5)CCC4)cn3)nn12

>  <IC50>
0.5 to 1 µM

$$$$
>  <Compound>
Cc1ncc2oc(-c3ccc(Nc4ccnc(NCc5ccccc5)n4)cc3)nn12

>  <IC50>
1 to 2.2 µM

$$$$
>  <Compound>
Cc1ncc2oc(-c3ccc(Nc4nccc(NCc5ccccc5C(F)(F)F)n4)cc3)nn12

>  <IC50>
1 to 2.2 µM

$$$$
>  <Compound>
Cc1cc(-c2nn3c(C)ncc3o2)ccc1NC(=O)Cc1ccc(C(F)(F)F)cc1

>  <IC50>
0.5 to 1 µM

$$$$
>  <Compound>
CCOc1ccc(CC(=O)Nc2ccc(-c3nn4c(C)ncc4o3)cc2)cc1

>  <IC50>
1 to 2.2 µM

$$$$
>  <Compound>
Cc1ccc(C2CCCN2C(=O)c2nn3c(C)ncc3s2)cc1 (stereo not drawn)

>  <IC50>
0.1 to 0.5 µM

$$$$
>  <Compound>
Cc1ncc2sc(C(=O)N3CCCCC3c3cccc(C(F)(F)F)c3)nn12 (stereo not drawn)

>  <IC50>
1 to 2.2 µM

$$$$
>  <Compound>
Cc1ncc2oc(-c3ccc(NC(=O)Cc4c(F)cc(Cl)cc4F)cc3)nn12

>  <IC50>
0.5 to 1 µM

$$$$
>  <Compound>
Cc1ncc2sc(C(=O)N(C)CCc3ccccc3)nn12

>  <IC50>
0.5 to 1 µM

$$$$
>  <Compound>
Cc1ncc2sc(C(=O)N3CCCCC3Cc3ccccc3)nn12 (stereo not drawn)

>  <IC50>
1 to 2.2 µM

$$$$
>  <Compound>
Cc1cccc(CC(=O)Nc2ccc(-c3nn4c(C)ncc4o3)cc2)c1

>  <IC50>
1 to 2.2 µM

$$$$
>  <Compound>
COc1ccc(Cl)c(CC(=O)Nc2ccc(-c3nn4c(C)ncc4o3)cc2)c1F

>  <IC50>
0.5 to 1 µM

$$$$
>  <Compound>
Cc1ncc2oc(-c3ccc(NC(=O)Cc4ccccc4C(F)(F)F)cc3)nn12

>  <IC50>
0.5 to 1 µM

$$$$
>  <Compound>
Cc1ncc2oc(-c3ccc(NC(=O)Cc4ccc(C(C)(C)C)cc4)cc3)nn12

>  <IC50>
0.5 to 1 µM

$$$$
>  <Compound>
Cc1ncc2oc(-c3ccc(NC(=O)Cc4ccc(C(F)(F)F)cc4Br)cc3)nn12

>  <IC50>
0.5 to 1 µM

$$$$
>  <Compound>
Cc1ncc2sc(C(=O)NCc3ccc(Oc4ccc(F)cc4)cc3)nn12

>  <IC50>
0.1 to 0.5 µM

$$$$
